# Assay target: Amyloid-beta precursor protein (Homo sapiens) (UniProt P05067)
# Sequence (P05067 whole entry): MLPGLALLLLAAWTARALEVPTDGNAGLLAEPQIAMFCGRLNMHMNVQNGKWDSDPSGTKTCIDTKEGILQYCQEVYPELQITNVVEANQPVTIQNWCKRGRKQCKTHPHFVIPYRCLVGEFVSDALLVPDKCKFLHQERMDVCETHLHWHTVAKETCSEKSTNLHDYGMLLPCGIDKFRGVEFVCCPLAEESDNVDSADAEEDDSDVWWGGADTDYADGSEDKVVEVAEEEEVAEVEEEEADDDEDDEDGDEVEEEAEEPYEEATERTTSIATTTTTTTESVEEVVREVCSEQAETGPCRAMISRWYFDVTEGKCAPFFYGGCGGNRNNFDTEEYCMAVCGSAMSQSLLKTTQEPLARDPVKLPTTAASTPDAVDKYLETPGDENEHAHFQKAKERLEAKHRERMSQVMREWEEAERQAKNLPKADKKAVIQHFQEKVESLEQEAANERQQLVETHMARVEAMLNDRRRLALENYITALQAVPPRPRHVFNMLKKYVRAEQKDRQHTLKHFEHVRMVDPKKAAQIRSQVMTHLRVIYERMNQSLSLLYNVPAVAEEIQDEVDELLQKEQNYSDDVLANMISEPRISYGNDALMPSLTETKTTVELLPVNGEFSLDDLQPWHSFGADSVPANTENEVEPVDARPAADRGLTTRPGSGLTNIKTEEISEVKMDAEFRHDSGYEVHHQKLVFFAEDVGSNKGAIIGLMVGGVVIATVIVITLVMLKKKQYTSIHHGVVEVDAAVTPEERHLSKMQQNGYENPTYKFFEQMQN
# Assay explanation: Inhibition of HFIP-pretreated amyloid beta (1 to 42) (unknown origin) self-aggregation at 25 uM after 24 hrs by thioflavin-T fluorescence assay relative to control
Test readout: inhibition (%)
Write the value in % as a bare number.

Check out these entries, answers already filled in.
Compound	inhibition [%]
COC(=O)C(C)c1ccc(-c2ccc(NCc3cccc(OC)c3O)cc2)c(F)c1 (stereo not given)	46.2
COC(=O)C(C)c1ccc(-c2ccc(NCc3nc(C)c(C)nc3C)cc2)c(F)c1 (stereo not given)	27.5
COC(=O)C(C)c1ccc(-c2ccc(NCc3cc(Br)cc(Br)c3O)cc2)c(F)c1 (stereo not given)	57.9

Please turn your attention to the following entry.
Quick one: inhibition of COc1cc(/C=C/C(=O)CC(=O)/C=C/c2ccc(O)c(OC)c2)ccc1O ? 32.5

----------
# Assay target: Amyloid-beta precursor protein (Homo sapiens) (UniProt P05067)
# Assay explanation: Inhibition of HFIP-pretreated amyloid beta (1 to 42) (unknown origin) self-aggregation at 25 uM after 24 hrs by thioflavin-T fluorescence assay relative to control
Recorded measurements of inhibition, one per entry
Write the value in % as a bare number.

Quick one: inhibition of Oc1c(I)cc(Cl)c2cccnc12 ? 62.4

----------
# Assay target: Amyloid-beta precursor protein (Homo sapiens)
# Assay explanation: Disaggregation of self-induced amyloid beta (1 to 42) (unknown origin) preformed fibrils at 25 uM measured after 24 hrs by thioflavin-T fluorescence assay relative to control
# label = y if Activity >= 40% else n

Compound	Assay target	Label class
COC(=O)C(C)c1ccc(-c2ccc(NCc3cccc(CN4CCCCC4)c3O)cc2)c(F)c1 (stereo not given)	Amyloid-beta precursor protein (Homo sapiens)	y
COC(=O)C(C)c1ccc(-c2ccc(NCc3ccccn3)cc2)c(F)c1 (stereo not given)	Amyloid-beta precursor protein (Homo sapiens)	n
COC(=O)C(C)c1ccc(-c2ccc(NCc3cc(OC)ccc3O)cc2)c(F)c1 (stereo not given)	Amyloid-beta precursor protein (Homo sapiens)	y
COC(=O)C(C)c1ccc(-c2ccc(NCc3cc(Cl)ccc3O)cc2)c(F)c1 (stereo not given)	Amyloid-beta precursor protein (Homo sapiens)	y
COC(=O)C(C)c1ccc(-c2ccccc2NCc2cc(N(C)C)ccc2O)c(F)c1 (stereo not given)	Amyloid-beta precursor protein (Homo sapiens)	y

Can COC(=O)C(C)c1ccc(-c2ccc(NCc3ccccc3O)cc2)c(F)c1 (stereo not given) be said to have Activity at or above 40%? y

Can COC(=O)C(C)c1ccc(-c2ccc(NCc3nc(C)c(C)nc3C)cc2)c(F)c1 (stereo not given) be said to have Activity at or above 40%? n

Can COC(=O)C(C)c1ccc(-c2ccc(NCc3cccc(OC)c3O)cc2)c(F)c1 (stereo not given) be said to have Activity at or above 40%? y

Can COC(=O)C(C)c1ccc(-c2ccc(NCc3cccc(CN(C)C)c3O)cc2)c(F)c1 (stereo not given) be said to have Activity at or above 40%? y

Can COC(=O)C(C)c1ccc(-c2ccc(NCc3cc(Br)cc(Br)c3O)cc2)c(F)c1 (stereo not given) be said to have Activity at or above 40%? n

----------
# Assay target: Amine oxidase [flavin-containing] B (Homo sapiens, UniProt P27338)
# Sequence (P27338 whole entry): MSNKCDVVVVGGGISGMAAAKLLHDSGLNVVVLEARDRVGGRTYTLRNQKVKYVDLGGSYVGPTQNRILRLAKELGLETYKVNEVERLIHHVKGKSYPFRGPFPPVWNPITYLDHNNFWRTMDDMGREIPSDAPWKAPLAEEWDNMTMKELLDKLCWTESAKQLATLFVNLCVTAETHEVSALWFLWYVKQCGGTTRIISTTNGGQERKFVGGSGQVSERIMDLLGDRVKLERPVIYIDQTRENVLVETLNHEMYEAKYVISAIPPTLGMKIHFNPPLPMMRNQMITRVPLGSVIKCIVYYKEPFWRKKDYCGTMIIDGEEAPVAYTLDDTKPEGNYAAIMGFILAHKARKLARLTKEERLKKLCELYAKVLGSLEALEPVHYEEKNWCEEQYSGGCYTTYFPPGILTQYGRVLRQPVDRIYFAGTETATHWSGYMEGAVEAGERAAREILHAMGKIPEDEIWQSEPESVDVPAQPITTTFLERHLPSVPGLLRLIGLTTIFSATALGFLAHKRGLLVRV
# Assay explanation: Inhibition of recombinant human MAOB expressed in baculovirus infected in BTI cells using kynuramine as substrate after 30 mins by fluorescence based assay
# Format: cell-based
Test readout: pIC50
As a rule, pIC50 stands for the negative log10 of the concentration, concentration in M.

Check out these entries, answers already filled in.
Molecule	Test readout	Recorded number
COC(=O)C(C)c1ccc(-c2ccc(NCc3nc(C)c(C)nc3C)cc2)c(F)c1 (centres undefined)	pIC50	4.82
COC(=O)C(C)c1ccc(-c2ccc(NCc3cc(N(C)C)ccc3O)cc2)c(F)c1 (centres undefined)	pIC50	4.99

Quick one: pIC50 of COC(=O)C(C)c1ccc(-c2ccc(NCc3cc(NC(C)=O)ccc3O)cc2)c(F)c1 (centres undefined) ? 4.79

Quick one: pIC50 of COC(=O)C(C)c1ccc(-c2ccc(NCc3ccccn3)cc2)c(F)c1 (centres undefined) ? 4.78

Hey, just so you know, these numbers are from ChEMBL document CHEMBL4627303.
